Ki values, listed per item
# TARGET OR TEST SYSTEM: T1, rat MASP-2cf CCP1-CCP2-SP (rat, UniProt Q9JJS8 298-685)
# T1 construct: range 298-685; Mw 42309 Da; also called rat MASP-2 catalytic fragment
# T1 sequence (Q9JJS8 other isoform, or with tags, fused parts or gaps limits assumed, form in doubt): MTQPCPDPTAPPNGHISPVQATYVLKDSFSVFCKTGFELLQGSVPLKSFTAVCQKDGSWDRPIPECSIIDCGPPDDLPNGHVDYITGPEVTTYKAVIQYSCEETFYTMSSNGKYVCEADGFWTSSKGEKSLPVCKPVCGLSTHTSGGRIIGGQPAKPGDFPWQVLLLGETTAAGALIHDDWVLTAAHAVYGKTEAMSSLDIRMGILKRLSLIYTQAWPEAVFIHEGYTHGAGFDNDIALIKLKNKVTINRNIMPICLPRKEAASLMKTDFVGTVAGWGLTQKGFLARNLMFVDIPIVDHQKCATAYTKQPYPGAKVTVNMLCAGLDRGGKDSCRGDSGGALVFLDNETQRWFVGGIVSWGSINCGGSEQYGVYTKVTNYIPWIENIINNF
# PROTOCOL DETAILS: enzyme inhibition, tight-binding fit
Where no end group is shown, it is not given here.
Provide the reading as a plain figure in pM.

INSERT INTO measurements (binder, recorded_value) VALUES
  ('EVO22 (designed binder, not fully specified; cysteine pairing not given here, Modified TFPI-D2 Kunitz domain; made as m1) KPDFCFLENDPGPCRALKRRYFYNNQTKQCERFYYGGCLGNMNNFVTLEECKNICEDG', 310);

Now take the following binder into account.
Qu. Input EVO221 (designed binder, not fully specified; cysteine pairing not given here, Modified TFPI-D2 Kunitz domain; made as m1) KPDFCFLENDPGVCRAAAVRYFYNNQTKQCERFYYGGCLGNMNNFVTLEECKNICEDG , output reported Ki.
Ans. 100

Value source: patent US20260098080A1
